Experiment: In vivo pharmacokinetic study, plasma LC-MS/MS
Set-up: species or system Female BALB/c mice
Details: mouse, plasma; IV at 5 mg/kg, female BALB/c mice
experimental readout: C0 (µM)
Numbers only here, please. The scale is µM.

Short answer for C=C1CC[C@@H]2[C@](C)(CO)[C@H](O)CC[C@@]2(C)[C@@H]1C/C=C1/C(=O)OC[C@H]1O [andrographolide] : C0 was 14.6

###

Tested on: MCF-7
Test: In vitro cytotoxicity (MTT) assay
Assay type: cell-based
Conditions: Homo sapiens, MCF7, MCF-7, 48 h
experimental readout: IC50

Short answer for C=C1CC[C@@H]2[C@](C)(CO)[C@H](O)CC[C@@]2(C)[C@@H]1C/C=C1/C(=O)OC[C@H]1O [andrographolide] : IC50 was 36.9 µM

###

Assay: In vivo pharmacokinetic study, plasma LC-MS/MS
Set-up: species or system Female BALB/c mice
Conditions: female, BALB/c, mouse, plasma, iv, 5 mg/kg, IV at 5 mg/kg, female BALB/c mice
experimental readout: clearance
Reply with the number, then its unit.

Short answer for C=C1CC[C@@H]2[C@](C)(CO)[C@H](O)CC[C@@]2(C)[C@@H]1C/C=C1/C(=O)OC[C@H]1O [andrographolide] : clearance was 91.8 mL/min/kg

###

Test system: MCF-10A normal human breast epithelial immortalized cell line
Assay: In vitro cytotoxicity (MTT) assay
Assay type: cell-based
Details: Homo sapiens; MCF-10A, 24 h, MTT
experimental readout: IC50

I looked up C=C1CC[C@@H]2[C@](C)(CO)[C@H](O)CC[C@@]2(C)[C@@H]1C/C=C1/C(=O)OC[C@H]1O [andrographolide] and its IC50 for MCF-10A normal human breast epithelial immortalized cell line was 138 µM

###

Experiment: In vivo pharmacokinetic study, plasma LC-MS/MS
Design: species or system Female BALB/c mice
Details: mouse, plasma; PO at 50 mg/kg, female BALB/c mice
experimental readout: Cmax (nM)
Numbers only here, please. The scale is nM.

Short answer for C=C1CC[C@@H]2[C@](C)(CO)[C@H](O)CC[C@@]2(C)[C@@H]1C/C=C1/C(=O)OC[C@H]1O [andrographolide] : Cmax was 730

###

Assay: In vivo pharmacokinetic study, plasma LC-MS/MS
Design: species or system Female BALB/c mice
Details: female, BALB/c, mouse, plasma, iv, 5 mg/kg, IV at 5 mg/kg, female BALB/c mice
experimental readout: AUC(0-inf) (µM·h)
Numbers only here, please. The scale is µM·h.

Short answer for C=C1CC[C@@H]2[C@](C)(CO)[C@H](O)CC[C@@]2(C)[C@@H]1C/C=C1/C(=O)OC[C@H]1O [andrographolide] : AUC(0-inf) was 2.51

###

Assay: In vivo pharmacokinetic study, plasma LC-MS/MS
Parameters: species or system Female BALB/c mice
Settings: female, BALB/c, mouse, plasma, oral, 50 mg/kg, PO 50 mg/kg vs IV 5 mg/kg, female BALB/c mice; read-out: Bioavailability
experimental readout: bioavailability

Short answer for C=C1CC[C@@H]2[C@](C)(CO)[C@H](O)CC[C@@]2(C)[C@@H]1C/C=C1/C(=O)OC[C@H]1O [andrographolide] : bioavailability was < 10%

###

Test system: MDA-MB-231
Experiment: In vitro cytotoxicity (MTT) assay
Type: cell-based, human
Conditions: Homo sapiens, MDA-MB-231, 24 h
Procedure: The effect of andrographolide on cell viability was measured by MTT assay following the method by Mosmann. Briefly, the cells (1 × 10^5 cells per ml) were seeded in a 96 well micro titer plate (100 μl per well) with replications. […] The obtained formazan crystals were solubilized with DMSO and the absorbance was measured at 570 nm using a microplate reader (SpectraMax M5, Molecular Devices, USA). […]
experimental readout: IC50
Reply with the number, then its unit.

Short answer for C=C1CC[C@@H]2[C@](C)(CO)[C@H](O)CC[C@@]2(C)[C@@H]1C/C=C1/C(=O)OC[C@H]1O [andrographolide] : IC50 was 52 µM

###

Assay: In vivo pharmacokinetic study, plasma LC-MS/MS
Design: species or system Female BALB/c mice
Details: female, BALB/c, mouse, plasma, iv, 5 mg/kg, IV at 5 mg/kg, female BALB/c mice; read-out: Terminal T½ (converted)
experimental readout: half-life (h)
Numbers only here, please. The scale is h.

Short answer for C=C1CC[C@@H]2[C@](C)(CO)[C@H](O)CC[C@@]2(C)[C@@H]1C/C=C1/C(=O)OC[C@H]1O [andrographolide] : half-life was 1.86

###

Assay: In vivo pharmacokinetic study, plasma LC-MS/MS
Design: species or system Female BALB/c mice
Settings: mouse, plasma; PO at 50 mg/kg, female BALB/c mice; read-out: AUC(0-8)
Experimental: Female BALB/c mice, being divided into two groups (n = 6 per group), received andrographolide via oral route (PO) as well as intravenous (IV) bolus dosing at 50 mg/kg (equivalent to 142.73 μmol/kg and dose volume, 10 ml/kg) and 5 mg/kg body weight (equivalent to 14.27 μmol/kg and dose volume, 5 ml/kg) respectively. […]
experimental readout: AUC(0-t) (µM·h)
Numbers only here, please. The scale is µM·h.

Short answer for C=C1CC[C@@H]2[C@](C)(CO)[C@H](O)CC[C@@]2(C)[C@@H]1C/C=C1/C(=O)OC[C@H]1O [andrographolide] : AUC(0-t) was 1.92

###

Tested on: MDA-MB-231
Test: In vitro cytotoxicity (MTT) assay
Type: cell-based, human
Conditions: Homo sapiens, MDA-MB-231, 48 h
experimental readout: pIC50
Here pIC50 is given on a logarithmic scale as minus log10 of the concentration in mol/L.

Short answer for C=C1CC[C@@H]2[C@](C)(CO)[C@H](O)CC[C@@]2(C)[C@@H]1C/C=C1/C(=O)OC[C@H]1O [andrographolide] : pIC50 was 4.52
